System: Tyk2-pSTAT4 (IL-12 induced pSTAT4)
assay-comment: IL-12 induced pSTAT4 in human PBMC
Format: cell-based
assay-setup: Homo sapiens, PBMC, 0.5 h, 1.7 ng/mL IL-12, 30 minutes
pEC50: −log10 of the molar value.
measurement-type: pEC50

Worked examples, 5 compounds total:
# compound, pEC50
rows = [
    ("CO[C@@H]1CN(c2ccn(-c3cc(-c4c(F)cccc4C#N)nc4c3C(=O)NC4)n2)C[C@@H]1O [I-154]", "7.00 to 7.52"),
    ("CC(C)c1ccn(-c2cc(-c3c(F)cccc3C#N)nc3c2C(=O)NC3)n1 [I-151]", "5.70 to 7.00"),
    ("N#Cc1cccc(F)c1-c1cc(-n2ccc(N3CCC[C@](N)(C(F)(F)F)C3)n2)c2c(n1)CNC2=O [I-119]", "7.00 to 7.52"),
    ("CO[C@H]1CN(c2ccn(-c3cc(-c4c(F)cccc4C#N)nc4c3C(=O)NC4)n2)C[C@@]1(C)OC [I-230]", "5.70 to 7.00"),
    ("N#Cc1cccc(F)c1-c1cc(-n2ccc(N3CCC(O)(C(=O)N4CCCC4)C3)n2)c2c(n1)CNC2=O (stereo not drawn) [I-191]", "5.70 to 7.00"),
]

Identify pEC50 associated with the compound N#Cc1cccc(F)c1-c1cc(-n2cc(F)c(N3CC[C@@H](O)C3)n2)c2c(n1)CNC2=O [I-189] 5.70 to 7.00

Identify pEC50 associated with the compound N#Cc1cccc(F)c1-c1cc(-n2cc(F)c(N3CCC(O)C3)n2)c2c(n1)CNC2=O (stereo not drawn) [I-185] 5.70 to 7.00

Identify pEC50 associated with the compound N#Cc1cccc(F)c1-c1cc(-n2ccc(N3CCNC(=O)CC3)n2)c2c(n1)CNC2=O [I-141] 5.70 to 7.00

Identify pEC50 associated with the compound N#Cc1cccc(F)c1-c1cc(-n2ccc(N3CCCC(CO)C3)n2)c2c(n1)CNC2=O (stereo not drawn) [I-86] 5.70 to 7.00
